Exercise: state measured pEC50 for each of the compounds provided.
Test system: genotype 2a stable HCV replicon (JFH-1 strain) in Huh-7-derived cells
Assay: Stable subgenomic HCV replicon EC50, genotype 2a (Renilla luciferase)
Assay type: cell-based
Conditions: Hepatitis C virus, stable replicon genotype 2a, 72 h, read-out: EC50 2A RLUC
// scale note: pEC50 = -log10(conc_M); give the bare number

Lookup: pEC50 / genotype 2a stable HCV replicon (JFH-1 strain) in Huh-7-derived cells / CC[C@@H]1[C@@H]2CN(C(=O)[C@H](C(C)(C)C)NC(=O)O[C@@H]3C[C@H]3CC/C=C/C(F)(F)c3nc4ccc(OC)cc4nc3O2)[C@@H]1C(=O)N[C@]1(C(=O)NS(=O)(=O)C2(C)CC2)C[C@H]1C(F)F
8.37

Lookup: pEC50 / genotype 2a stable HCV replicon (JFH-1 strain) in Huh-7-derived cells / COc1ccc2nc3c(nc2c1)O[C@H]1CN(C(=O)[C@H](C(C)(C)C)NC(=O)O[C@@H]2C[C@H]2CCCCC3)[C@H](C(=O)N[C@]2(C(=O)NS(=O)(=O)C3(C)CC3)C[C@H]2C(F)F)[C@@H]1C1CC1
7.20

Lookup: pEC50 / genotype 2a stable HCV replicon (JFH-1 strain) in Huh-7-derived cells / CC[C@@H]1[C@@H]2CN(C(=O)[C@H](C(C)(C)C)NC(=O)O[C@@]3(C(F)(F)F)CCC[C@H]3CCCCCc3nc4ccc(OC)cc4nc3O2)[C@@H]1C(=O)N[C@]1(C(=O)NS(=O)(=O)C2CC2)C[C@H]1C(F)F
7.60

Lookup: pEC50 / genotype 2a stable HCV replicon (JFH-1 strain) in Huh-7-derived cells / COc1ccc2nc3c(nc2c1)O[C@H]1CN(C(=O)[C@H](C(C)(C)C)NC(=O)O[C@@H]2C[C@H]2CCCCC3F)[C@H](C(=O)N[C@]2(C(=O)NS(=O)(=O)C3(C)CC3)C[C@H]2C(F)F)[C@@H]1C (stereo partly shown)
7.92

###

Exercise: state measured Ki for each of the compounds provided.
Biological target: NS3 genotype 1b protease (Hepatitis C virus genotype 1b, UniProt Q9WMX2, E1202G)
Construct: Purified NS3 protease domain (amino acids 1-181) of the genotype 1b and 3a virus were generated as above; K3 hexahistidine tag (N); rTEV protease cleavage site (N); made in house; host or cells: E. coli BL21AI, pET28 vector p28-N6H-Tev-NS3(181)1b
Assay: Ki determination, NS3 protease genotype 1b (fluorogenic depsipeptide substrate)
Type: biochemical
Use nM as the unit, but write only the number.

GET /values?readout=Ki&item= CC[C@]12C[C@@H]1CCCCCc1nc3ccc(OC)cc3nc1O[C@H]1CN(C(=O)[C@H](C(C)(C)C)NC(=O)O2)[C@H](C(=O)N[C@]2(C(=O)NS(=O)(=O)C3(C)CC3)C[C@H]2C(F)F)[C@@H]1C
0.1

GET /values?readout=Ki&item= CCOc1ccc2nc3c(nc2c1)O[C@H]1CN(C(=O)[C@H](C(C)(C)C)NC(=O)O[C@@H]2C[C@H]2CCCCC3)[C@H](C(=O)N[C@]2(C(=O)NS(=O)(=O)C3(C)CC3)C[C@H]2C(F)F)[C@@H]1CC
0.07

GET /values?readout=Ki&item= CC[C@@]12C[C@H]1CCCCCc1nc3ccc(OC)cc3nc1O[C@H]1CN(C(=O)[C@H](C(C)(C)C)NC(=O)O2)[C@H](C(=O)N[C@]2(C(=O)NS(=O)(=O)C3(C)CC3)C[C@H]2C(F)F)[C@@H]1C
0.06

GET /values?readout=Ki&item= COc1ccc2nc3c(nc2c1)O[C@H]1CN(C(=O)[C@H](C(C)(C)C)NC(=O)O[C@@H]2C[C@H]2CCCCC3(F)F)[C@H](C(=O)N[C@]2(C(=O)NS(=O)(=O)C3(C)CC3)C[C@H]2C(F)F)[C@@H]1C
0.03

GET /values?readout=Ki&item= COc1ccc2nc3c(nc2c1)O[C@H]1CN(C(=O)[C@H](C(C)(C)C)NC(=O)O[C@]2(C)C[C@H]2CCCCC3(F)F)[C@H](C(=O)N[C@]2(C(=O)NS(=O)(=O)C3(C)CC3)C[C@H]2C(F)F)[C@@H]1C (single isomer, unassigned)
0.03
